System: CAL-12T
Test: relative viability (nuclei count vs DMSO), 5 days (fraction); higher = more cells survive
Conditions: first compound 0.1265 µM
measurementName: relative viability
Simply state the number, no unit and no words.

-- ask Tell me measured relative viability for C[C@@H]1CN(CC(=O)Nc2ccc3c(c2)Cc2cccc(-c4cc(=O)cc(N5CCOCC5)o4)c2S3)C[C@H](C)O1 + COc1cccc2cc(-c3nc([C@H]4CC[C@H](C(=O)O)CC4)n4ncnc(N)c34)[nH]c12 [OSI-027] (partner 0.5 µM) please.
-- reply 0.675

-- ask Tell me measured relative viability for Clc1ccc(Nc2nnc(Cc3ccncc3)c3ccccc23)cc1 [Vatalanib] + CC(C)C[C@H](NC(=O)[C@H](Cc1ccccc1)NC(=O)c1cnccn1)B(O)O [Bortezomib] (partner 0.002 µM) please.
-- reply 0.774

-- ask Tell me measured relative viability for Clc1ccc(Nc2nnc(Cc3ccncc3)c3ccccc23)cc1 [Vatalanib] + NC(=O)Nc1cc(-c2cccc(F)c2)sc1C(=O)N[C@H]1CCCNC1 [AZD7762] (partner 0.2 µM) please.
-- reply 0.599

-- ask Tell me measured relative viability for COc1cc(N2CCC(C(N)=O)CC2)ccc1Nc1nc(N)c(Cl)c(Nc2ccccc2S(=O)(=O)C(C)C)n1 [HG-5-88-01] + NC(=O)Nc1cc(-c2cccc(F)c2)sc1C(=O)N[C@H]1CCCNC1 [AZD7762] (partner 0.2 µM) please.
-- reply 0.607

-- ask Tell me measured relative viability for Clc1ccc(Nc2nnc(Cc3ccncc3)c3ccccc23)cc1 [Vatalanib] + C[C@]1(O)C[C@@H](c2nc(-c3ccc4ccc(-c5ccccc5)nc4c3)c3c(N)nccn32)C1 [Linsitinib] (partner 1 µM) please.
-- reply 0.787

-- ask Tell me measured relative viability for C[C@@H]1CN(CC(=O)Nc2ccc3c(c2)Cc2cccc(-c4cc(=O)cc(N5CCOCC5)o4)c2S3)C[C@H](C)O1 + CCNC(=O)c1noc(-c2cc(C(C)C)c(O)cc2O)c1-c1ccc(CN2CCOCC2)cc1 [Luminespib] (partner 0.01 µM) please.
-- reply 0.408

-- ask Tell me measured relative viability for COc1cc(N2CCC(C(N)=O)CC2)ccc1Nc1nc(N)c(Cl)c(Nc2ccccc2S(=O)(=O)C(C)C)n1 [HG-5-88-01] + CC(=O)Nc1cccc(-n2c(=O)n(C3CC3)c(=O)c3c(Nc4ccc(I)cc4F)n(C)c(=O)c(C)c32)c1 [Trametinib] (partner 0.02 µM) please.
-- reply 0.378
